Biological target: recombinant human PAI-1 (Homo sapiens)
Sequence (P05121 24-402): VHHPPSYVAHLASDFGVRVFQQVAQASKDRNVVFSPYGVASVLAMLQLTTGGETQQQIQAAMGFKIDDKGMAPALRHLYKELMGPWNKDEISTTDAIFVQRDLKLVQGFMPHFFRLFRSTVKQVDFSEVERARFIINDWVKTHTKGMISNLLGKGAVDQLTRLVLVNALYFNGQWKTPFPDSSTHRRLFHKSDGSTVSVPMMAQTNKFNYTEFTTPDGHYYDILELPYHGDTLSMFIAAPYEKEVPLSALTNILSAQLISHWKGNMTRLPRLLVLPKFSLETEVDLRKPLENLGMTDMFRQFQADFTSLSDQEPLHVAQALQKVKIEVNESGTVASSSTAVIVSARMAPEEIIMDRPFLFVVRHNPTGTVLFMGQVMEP
Experiment: Test Example 2: Human PAI-1 Inhibitory Activity (pH 7.4 HEPES buffer, 10 minutes incubation with two-chain tPA)
Assay type: biochemical
Design: purchased Molecular Innovations, Inc
Conditions: read-out: Inhibition Rate of PAI-1 Activity (%)
Method: 0.1 M HEPES, 0.1 M NaCl. 1 mM EDTA. 0.1 % Polyethylene glycol 8,000 (Hampton Research Corporation), 2 mM Dimethyldecylphoshine oxide [Apo-10] (Fluka Corporation)
OBSERVABLE: inhibition at 3 µM

INSERT INTO assay_data (chemical_structure, system_name, observable, result) VALUES
  ('CC(C)Oc1ccc(N(Cc2ccc(C(C)(C)C)cc2)C(=O)C(=O)O)cc1-c1ccc(OC(F)(F)F)cc1', 'recombinant human PAI-1 (Homo sapiens)', 'inhibition at 3 µM', '96%'),
  ('CCCCCOc1ccc(-c2ccc(OC(F)(F)F)cc2)cc1N(CCCCOc1ccccc1)C(=O)C(=O)O', 'recombinant human PAI-1 (Homo sapiens)', 'inhibition at 3 µM', '> 99%'),
  ('CC(C)(C)[C@H]1CC[C@H](CN(C(=O)C(=O)O)c2ccc(-c3ccc(OC(F)(F)F)cc3)cc2)CC1', 'recombinant human PAI-1 (Homo sapiens)', 'inhibition at 3 µM', '> 99%'),
  ('O=C(O)CCc1ccc(-c2ccc(OC(F)(F)F)cc2)cc1Oc1ccc2ccccc2c1', 'recombinant human PAI-1 (Homo sapiens)', 'inhibition at 3 µM', '> 99%'),
  ('CCCCc1ccc(-c2ccc(Oc3ccc(C(C)(C)C)cc3)c(OCC(=O)O)c2)cc1', 'recombinant human PAI-1 (Homo sapiens)', 'inhibition at 3 µM', '> 99%');
